pIC50 values by entry
molecular target: cAMP and cAMP-inhibited cGMP 3',5'-cyclic phosphodiesterase 10A (Homo sapiens)
Sequence (Q9Y233 whole entry): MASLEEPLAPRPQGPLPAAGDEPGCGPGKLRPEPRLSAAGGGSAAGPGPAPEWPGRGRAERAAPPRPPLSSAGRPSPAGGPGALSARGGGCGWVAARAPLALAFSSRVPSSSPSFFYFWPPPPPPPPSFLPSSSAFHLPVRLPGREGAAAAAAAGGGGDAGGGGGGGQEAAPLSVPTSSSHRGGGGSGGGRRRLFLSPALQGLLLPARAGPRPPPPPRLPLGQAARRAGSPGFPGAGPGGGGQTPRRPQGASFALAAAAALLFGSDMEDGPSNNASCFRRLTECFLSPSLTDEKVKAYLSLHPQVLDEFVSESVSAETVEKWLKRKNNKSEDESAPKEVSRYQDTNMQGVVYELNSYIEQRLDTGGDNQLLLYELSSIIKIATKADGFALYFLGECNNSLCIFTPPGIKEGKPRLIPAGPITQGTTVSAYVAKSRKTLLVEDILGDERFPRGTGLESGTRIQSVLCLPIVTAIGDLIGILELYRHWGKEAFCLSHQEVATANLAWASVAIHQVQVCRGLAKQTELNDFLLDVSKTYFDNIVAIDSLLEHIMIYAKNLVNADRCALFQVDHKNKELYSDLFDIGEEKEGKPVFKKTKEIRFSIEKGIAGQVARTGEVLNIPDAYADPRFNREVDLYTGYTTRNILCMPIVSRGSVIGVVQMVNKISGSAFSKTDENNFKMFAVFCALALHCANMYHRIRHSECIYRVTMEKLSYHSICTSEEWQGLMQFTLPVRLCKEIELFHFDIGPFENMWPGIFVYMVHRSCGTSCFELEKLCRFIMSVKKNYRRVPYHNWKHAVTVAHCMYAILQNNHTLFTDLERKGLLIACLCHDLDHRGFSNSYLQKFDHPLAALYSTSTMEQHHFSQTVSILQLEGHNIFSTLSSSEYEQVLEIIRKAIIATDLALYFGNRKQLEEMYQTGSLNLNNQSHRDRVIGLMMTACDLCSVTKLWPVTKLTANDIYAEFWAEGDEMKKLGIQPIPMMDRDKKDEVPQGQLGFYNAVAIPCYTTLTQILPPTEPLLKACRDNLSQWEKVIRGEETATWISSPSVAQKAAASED
Keep in mind that pIC50 stands for -log10 of concentration in molar terms.

Some compounds with known pIC50 results, for comparison:
chemicalString: COc1cc2nncc(-c3ccc(C)nc3)c2cc1OC
pIC50: 6.74

chemicalString: CCc1cc(-c2cnnc3cc(OC)c(OC)cc23)cnc1NC(C)C
pIC50: 8.96

chemicalString: COc1cc2nncc(-c3cnc(NC(C)C)c(C4CC4)c3)c2cc1OC
pIC50: 8.82

chemicalString: COc1cc2nncc(-c3cnc(N4CCC(O)(c5ccccn5)CC4)c(Cl)c3)c2cc1OC
pIC50: 8.24

chemicalString: COc1cc2nncc(-c3ccc(N4CCOCC4)nc3)c2cc1OC
pIC50: 7.67

Consider the record given below.
Query: // fetch cAMP and cAMP-inhibited cGMP 3',5'-cyclic phosphodiesterase 10A (Homo sapiens) pIC50 for COc1cc2nncc(-c3cnc(N4CCC(C(C)(C)O)CC4)c(Cl)c3)c2cc1OC
Reply: 8.21

----------
target: cAMP and cAMP-inhibited cGMP 3',5'-cyclic phosphodiesterase 10A (Homo sapiens)
Kindly apply the following: met if IC50 is less than 0.02 µM, not met in every other case.

chemicalString: COc1cc2nncc(-c3ccc(NC(C)C)nc3C)c2cc1OC
category: not met
--
chemicalString: COc1cc2nncc(-c3cccnc3)c2cc1OC
category: not met

Query: Problem: For the molecule COc1cc2nncc(-c3ccc(NCC(F)(F)F)nc3)c2cc1OC , is IC50 under 0.02 µM?
Reply: met

Query: Consider the molecule COC[C@H](C)Nc1ccc(-c2cnnc3cc(OC)c(OC)cc23)cn1 . Is its IC50 strictly less than 0.02 µM?
Reply: met

Query: I'd appreciate it if you could check whether CCOC1CCN(c2ccc(-c3cnnc4cc(OC)c(OC)cc34)cn2)CC1 has IC50 smaller than 0.02 µM.
Reply: met

Query: In the record for COc1cc2nncc(-c3ccc(C#N)nc3)c2cc1OC , is IC50 less than 0.02 µM?
Reply: not met

Query: Lab note: confirm whether the reported IC50 for this molecule is below 0.02 µM, equality not counting. molecule: COc1cc2nncc(-c3cnc(NC(C)C)c(Cl)c3)c2cc1OC
Reply: met

Query: I'd appreciate it if you could check whether COc1cc2nncc(-c3ccc(NCC4CC4)nc3)c2cc1OC has IC50 smaller than 0.02 µM.
Reply: met

Query: Check if IC50 falls below 0.02 µM for COc1cc2nncc(-c3ccc(N4CC(OC)C4)nc3)c2cc1OC .
Reply: met

Query: Please determine if COc1cc2nncc(-c3cnc(NC(C)C)c(C#N)c3)c2cc1OC is below 0.02 µM in terms of IC50.
Reply: met

Query: hey, is IC50 for COc1cc2nncc(-c3cnc(NC(C)C)c(C(C)(C)O)c3)c2cc1OC lower than 0.02 µM or not?
Reply: met

Query: Dear colleague, could you confirm whether IC50 of COc1cc2nncc(-c3cnc(NC(C)C)c(F)c3)c2cc1OC falls below 0.02 µM? Thanks.
Reply: met

Query: Check if IC50 falls below 0.02 µM for COc1cc2nncc(-c3cnc(N4CCC(O)(c5ccccn5)CC4)c(C)c3)c2cc1OC .
Reply: met

Query: Is the reported IC50 for COc1cc2nncc(-c3cnc(NC(C)C)c(C(F)F)c3)c2cc1OC strictly below 0.02 µM?
Reply: met

Query: Answer whether the molecule C=CCNc1ccc(-c2cnnc3cc(OC)c(OC)cc23)cn1 has IC50 strictly less than 0.02 µM
Reply: met

Query: Check if IC50 falls below 0.02 µM for COc1cc2nncc(-c3ccc(NC(C)C)nc3)c2cc1OC .
Reply: met

Query: Answer whether the molecule COc1cc2nncc(-c3ccc(CC(C)C)nc3)c2cc1OC has IC50 strictly less than 0.02 µM
Reply: not met

Query: Consider the molecule COc1cc2nncc(-c3ccc(NCC(C)C)nc3)c2cc1OC . Is its IC50 strictly less than 0.02 µM?
Reply: met

Query: I'd appreciate it if you could check whether COc1cc2nncc(-c3cnc(NC(C)C)c(C)c3)c2cc1OC has IC50 smaller than 0.02 µM.
Reply: met
